Data provenance is patent US12622896B2.

# Test system: HIV-1 97USSN54 (subtype A, R5-tropic)
# procedure-summary: Anti-HIV viral spread assay in CEM-GXR cells, wild-type subtype A
# Format: cell-based
# test-context: Human immunodeficiency virus 1, nonlinear regression, read-out: EC50 (WT Subtype A)
readout: EC50 (nM)
Report as a plain number; the unit nM is understood.

Give a short answer stating reported EC50 for O=C(Nc1nc2ccc(C(F)(F)F)cc2s1)c1cnc(C(F)(F)F)s1 [12c] . 176

In one line, give reported EC50 of the entry Nc1nc(=O)n([C@@H]2CS[C@H](CO)O2)cc1F [FTC, emtricitabine, reference compound] . 26.3

Kindly indicate its recorded EC50. Item: O=C(Nc1nc2c(Cl)cccc2s1)c1cnc(C(F)(F)F)s1 [12a] 955

---

# System: HIV-1NL4-3
# procedure-summary: Preliminary anti-HIV screen: CEM-GXR reporter cells co-cultured with HIV-1NL4-3 infected cells, GFP by flow cytometry
# test-context: CEM-GXR cells, 1.25-10 μM, percent infected cells on day 3 (FIGS. 1A, 1B)
readout: anti-HIV activity in the primary library screen

Worked cases, anti-HIV activity in the primary library screen given:
{"compound": "O=C(Nc1nc2ccc(F)cc2s1)c1ccc([N+](=O)[O-])s1", "assay-result": "moderate to weak"}
{"compound": "CCOC(=O)c1ccc2nc(NC(=O)c3ccc([N+](=O)[O-])s3)sc2c1", "assay-result": "moderate to weak"}
{"compound": "O=C(Nc1nc2c(Cl)cccc2s1)c1ccc([N+](=O)[O-])s1", "assay-result": "significant activity"}
{"compound": "O=C(Nc1nc2ccccc2s1)c1ccc([N+](=O)[O-])s1", "assay-result": "moderate to weak"}
{"compound": "O=C(Nc1nc2ccc(Br)cc2s1)c1ccc([N+](=O)[O-])s1", "assay-result": "moderate to weak"}

Give reported anti-HIV activity in the primary library screen value for "O=C(Nc1nc2ccc(OC(F)(F)F)cc2s1)c1ccc([N+](=O)[O-])s1" significant activity

State, in one line, measured anti-HIV activity in the primary library screen of "O=C(Nc1nc2ccc([N+](=O)[O-])cc2s1)c1ccc([N+](=O)[O-])s1" significant activity

// Input: "O=C(Nc1nc2ccc(Cl)cc2s1)c1ccc([N+](=O)[O-])s1" . Output its anti-HIV activity in the primary library screen only. significant activity

Give the measured anti-HIV activity in the primary library screen for "O=C(Nc1nc2cc(Br)ccc2s1)c1ccc([N+](=O)[O-])s1" significant activity

Answer with the recorded anti-HIV activity in the primary library screen for the compound listed here: "O=C(Nc1nc2ccc(C(F)(F)F)cc2s1)c1ccc([N+](=O)[O-])s1" significant activity

Consider the compound "O=C(Nc1nc2c(Cl)cc(Cl)cc2s1)c1ccc([N+](=O)[O-])s1" . State its measured anti-HIV activity in the primary library screen. significant activity
